- method: solubility in phosphate buffer with/without 0.9% NaCl, pH serially lowered with acetic acid, concentration remaining in solution
- Assay type: physicochemical
- particulars: pH 8, PBS with 0.9% NaCl, pH 8; read-out: Solubility pH 8
Ends that are not written are not given here.
property name: solubility (µg/mL)
Enter your answer as a number in µg/mL; do not include the unit.

seq text: DMEEMMSEQENPDSSEPVVEDE [SEQ ID NO: 30]
property name: solubility
numeric readout: 542

seq text: DSQVIVEEVSIFPVEEQQEVPPD [SEQ ID NO: 32]
property name: solubility
numeric readout: 415

seq text: GEDLQQEDGPTGEPQQEDDEFL [SEQ ID NO: 29]
property name: solubility
numeric readout: 707

Moving on to the next sequence.
Query string: Value lookup for solubility; key = NEGIEITEVTAPPEDNPVEDSQ [SEQ ID NO: 31]
Result string: 861
